Test system: Leishmania mexicana cells
Test details: Comet assay of Leishmania mexicana cells
Format: cell-based
Set-up: unit not given here
Reported conditions: L. mexicana, 24 h at MIC; MMS 0.011%; Kruskal-Wallis $means
Overview of reported Comet tail length, mean (vary) across a group of molecules:
Reported metric: Comet tail length, mean (vary)

INSERT INTO measurements (molecule, data_value) VALUES
  ('COc1ccccc1C1[C@@]2(C(=O)N(c3ccccc3)N=C2C)[C@]12C(=O)N(c1ccccc1)N=C2C (relative stereo) [4f]', 75100000),
  ('CC1=NN(c2ccccc2)C(=O)[C@@]12C(c1cccc(F)c1)[C@@]21C(=O)N(c2ccccc2)N=C1C (relative stereo) [4t]', 124410000),
  ('COS(C)(=O)=O [MMS, methyl methanesulfonate, reference compound]', 67050000),
  ('COc1ccc(C2[C@@]3(C(=O)N(c4ccccc4)N=C3C)[C@]23C(=O)N(c2ccccc2)N=C3C)cc1 (relative stereo) [4e]', 65120000),
  ('CSc1ccc(C2[C@]3(C(=O)N(c4ccccc4)N=C3C)[C@@]23C(=O)N(c2ccccc2)N=C3C)cc1 (relative stereo) [4u]', 179560000),
  ('CC1=NN(c2ccccc2)C(=O)[C@@]12C(c1ccc([N+](=O)[O-])cc1)[C@@]21C(=O)N(c2ccccc2)N=C1C (relative stereo) [4k]', 142780000),
  ('CC1=NN(c2ccccc2)C(=O)[C@@]12C(c1ccc(OC(F)(F)F)cc1)[C@@]21C(=O)N(c2ccccc2)N=C1C (relative stereo) [4s]', 39720000),
  ('CC1=NN(c2ccccc2)C(=O)[C@@]12C(c1ccc(C(F)(F)F)cc1)[C@@]21C(=O)N(c2ccccc2)N=C1C (relative stereo) [4r]', 96310000),
  ('CC1=NN(c2ccccc2)C(=O)[C@@]12C(c1ccccc1[N+](=O)[O-])[C@@]21C(=O)N(c2ccccc2)N=C1C (relative stereo) [4c]', 70710000),
  ('CC1=NN(c2ccccc2)C(=O)[C@@]12C(c1ccccc1)[C@@]21C(=O)N(c2ccccc2)N=C1C (relative stereo) [4b]', 50400000),
  ('COC(=O)c1ccc(C2[C@@]3(C(=O)N(c4ccccc4)N=C3C)[C@]23C(=O)N(c2ccccc2)N=C3C)cc1 (relative stereo) [4q]', 172025000),
  ('CC1=NN(c2ccccc2)C(=O)[C@@]12C(c1cccc([N+](=O)[O-])c1)[C@@]21C(=O)N(c2ccccc2)N=C1C (relative stereo) [4d]', 75120000);

The measurements presented in this section are drawn from paper PMC8398714.
